# procedure-summary: in vitro
# recorded-conditions: human

molecule | CC50 at 48 h (µg/mL)
C=C(C)C1CC[C@]2(COC(=O)c3cn(CCCO)nn3)CC[C@]3(C)C(CCC4[C@@]5(C)CC[C@H](O)C(C)(C)C5CC[C@]43C)C12 (stereo partly drawn) | 27.7
C=C(C)C1CC[C@]2(COC(=O)c3cn(CC(N)C(=O)O)nn3)CC[C@]3(C)C(CCC4[C@@]5(C)CC[C@H](O)C(C)(C)C5CC[C@]43C)C12 (stereo partly drawn) | 100
C=C(C)C1CCC2(COC(=O)c3cn(C4CC(n5cc(C)c(=O)[nH]c5=O)OC4CO)nn3)CCC3(C)C(CCC4C5(C)CCC(O)C(C)(C)C5CCC43C)C12 (stereo not drawn) | 10.3
C=C(C)C1CCC2(COC(=O)c3cn(C4OC(CO)C(O)C(O)C4O)nn3)CCC3(C)C(CCC4C5(C)CCC(O)C(C)(C)C5CCC43C)C12 (stereo not drawn) | 100
C=C(C)C1CCC2(COC(=O)c3cn(C4OC(CO)C(O)C(O)C4O)nn3)CCC3(C)C(CCC4C5(C)CCC(OC(=O)c6cn(C7OC(CO)C(O)C(O)C7O)nn6)C(C)(C)C5CCC43C)C12 (stereo not drawn) | 100
C=C(C)C1CC[C@]2(COC(=O)c3cn(CCCO)nn3)CC[C@]3(C)C(CCC4[C@@]5(C)CC[C@H](OC(=O)c6cn(CCCO)nn6)C(C)(C)C5CC[C@]43C)C12 (stereo partly drawn) | 29.8

###

EC50 for assorted compounds
# System: cytopathogenic bovine orphan virus (ECBO) strain LCR-4
# procedure-summary: Time of addition assay (post-adsorption), CPE/MTT in A549 cells
# Type: cell-based, cytopathogenic bovine orphan virus (BEV-1)
# recorded-conditions: A549

compound | result-unit | EC50
C=C(C)C1CCC2(COC(=O)c3cn(C4OC(CO)C(O)C(O)C4O)nn3)CCC3(C)C(CCC4C5(C)CCC(OC(=O)c6cn(C7OC(CO)C(O)C(O)C7O)nn6)C(C)(C)C5CCC43C)C12 (stereo not drawn) | µg/mL | 5
C=C(C)C1CC[C@]2(COC(=O)c3cn(CCCO)nn3)CC[C@]3(C)C(CCC4[C@@]5(C)CC[C@H](OC(=O)c6cn(CCCO)nn6)C(C)(C)C5CC[C@]43C)C12 (stereo partly drawn) | µg/mL | 0.25
C=C(C)C1CCC2(COC(=O)c3cn(C4OC(CO)C(O)C(O)C4O)nn3)CCC3(C)C(CCC4C5(C)CCC(O)C(C)(C)C5CCC43C)C12 (stereo not drawn) | µg/mL | 5

###

# Tested on: cytopathogenic bovine orphan virus (ECBO) strain LCR-4
# procedure-summary: Time of addition assay (post-adsorption), CPE/MTT in A549 cells
# Format: cell-based, cytopathogenic bovine orphan virus (BEV-1)
# recorded-conditions: selectivity index, ratio of CC50 to EC50; ECBO in A549 cells

molecule | SI
C=C(C)C1CC[C@]2(COC(=O)c3cn(CC(N)C(=O)O)nn3)CC[C@]3(C)C(CCC4[C@@]5(C)CC[C@H](O)C(C)(C)C5CC[C@]43C)C12 (stereo partly drawn) | 20.0
C=C(C)C1CC[C@]2(COC(=O)c3cn(CCCO)nn3)CC[C@]3(C)C(CCC4[C@@]5(C)CC[C@H](O)C(C)(C)C5CC[C@]43C)C12 (stereo partly drawn) | 55.5
C=C(C)[C@@H]1CC[C@]2(CO)CC[C@]3(C)[C@H](CC[C@@H]4[C@@]5(C)CC[C@H](O)C(C)(C)[C@@H]5CC[C@]43C)[C@@H]12 | 37.0
C=C(C)C1CCC2(COC(=O)c3cn(C4OC(CO)C(O)C(O)C4O)nn3)CCC3(C)C(CCC4C5(C)CCC(OC(=O)c6cn(C7OC(CO)C(O)C(O)C7O)nn6)C(C)(C)C5CCC43C)C12 (stereo not drawn) | 20.0
C=C(C)C1CCC2(COC(=O)c3cn(C4OC(CO)C(O)C(O)C4O)nn3)CCC3(C)C(CCC4C5(C)CCC(O)C(C)(C)C5CCC43C)C12 (stereo not drawn) | 20.0
C=C(C)C1CCC2(COC(=O)c3cn(C4CC(n5cc(C)c(=O)[nH]c5=O)OC4CO)nn3)CCC3(C)C(CCC4C5(C)CCC(O)C(C)(C)C5CCC43C)C12 (stereo not drawn) | 10.3

Where these numbers come from: paper PMC6150379
